Source of measurements: patent EP4806891A1

pIC50 values by entry
Target: HEK-Blue-hTLR8 cells (Homo sapiens)
Sequence (Q9NR97 27-1041): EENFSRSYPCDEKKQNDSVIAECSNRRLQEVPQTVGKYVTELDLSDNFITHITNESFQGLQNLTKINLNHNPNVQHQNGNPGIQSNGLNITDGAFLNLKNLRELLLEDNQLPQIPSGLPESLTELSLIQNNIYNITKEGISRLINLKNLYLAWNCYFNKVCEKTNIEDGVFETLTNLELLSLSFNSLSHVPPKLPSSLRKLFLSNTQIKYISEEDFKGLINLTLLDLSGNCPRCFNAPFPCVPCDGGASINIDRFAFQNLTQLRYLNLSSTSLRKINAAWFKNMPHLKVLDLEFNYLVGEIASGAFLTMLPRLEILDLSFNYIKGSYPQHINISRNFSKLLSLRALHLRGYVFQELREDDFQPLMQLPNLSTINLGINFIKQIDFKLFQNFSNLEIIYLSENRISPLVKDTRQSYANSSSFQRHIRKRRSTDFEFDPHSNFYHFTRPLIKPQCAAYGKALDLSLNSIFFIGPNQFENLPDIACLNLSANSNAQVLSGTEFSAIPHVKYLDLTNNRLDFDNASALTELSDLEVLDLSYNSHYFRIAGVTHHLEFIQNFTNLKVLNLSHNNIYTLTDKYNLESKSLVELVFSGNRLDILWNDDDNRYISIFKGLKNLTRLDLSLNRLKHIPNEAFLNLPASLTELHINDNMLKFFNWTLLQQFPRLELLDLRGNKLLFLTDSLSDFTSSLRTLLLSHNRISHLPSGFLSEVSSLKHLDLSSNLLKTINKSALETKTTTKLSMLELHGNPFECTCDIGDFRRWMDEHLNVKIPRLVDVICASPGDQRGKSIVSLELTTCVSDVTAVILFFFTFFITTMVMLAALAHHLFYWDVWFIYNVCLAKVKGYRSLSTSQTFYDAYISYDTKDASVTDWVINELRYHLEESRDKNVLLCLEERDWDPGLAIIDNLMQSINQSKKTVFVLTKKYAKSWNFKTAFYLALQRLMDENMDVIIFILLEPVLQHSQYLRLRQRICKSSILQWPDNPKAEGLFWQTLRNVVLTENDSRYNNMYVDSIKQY
Assay: HEK-Blue-hTLR8 cell inhibition assay
Conditions: R848 3 µM, 16 h, OD 620 nm, read-out: TLR8 IC50
Protocol: HEK-Blue-hTLR7/8/9 cell inhibition assay 1. HEK-Blue-hTLR7/8 cells (1 × 10^4 cells/well) and HEK-Blue-hTLR9 cells (1.5 × 10^4 cells/well) were seeded in a 384-well cell culture plate, with a volume of 30 µL per well. The plate was incubated at 37°C in a 5% CO2 incubator for 4 h. 2. […] The optical density value of each well at 620 nm was measured using a multifunctional microplate reader. […]
pIC50: −log10 of the molar value.
READOUT: pIC50

{"columns": ["INPUT SMILES", "TARGET OR TEST SYSTEM", "READOUT", "READING"],
 "data": [
  ["CN(C)Cc1nnc([C@]23CN(c4ccc(C#N)c5ncccc45)C[C@@]2(C(F)(F)F)C3)o1", "HEK-Blue-hTLR8 cells (Homo sapiens)", "pIC50", "> 6.00"],
  ["N#Cc1ccc(N2C[C@]3(c4nnc(C5=CCNC5)o4)C[C@]3(C(F)(F)F)C2)c2cccnc12", "HEK-Blue-hTLR8 cells (Homo sapiens)", "pIC50", "> 7.00"],
  ["CN1CCC(Cc2nnc([C@]34CN(c5ccc(C#N)c6ncccc56)C[C@@]3(C(F)(F)F)C4)o2)CC1", "HEK-Blue-hTLR8 cells (Homo sapiens)", "pIC50", "> 7.00"],
  ["CN1CCC(c2nnc([C@]34CN(c5ccc(C#N)n6nccc56)C[C@@]3(C(F)(F)F)C4)o2)CC1", "HEK-Blue-hTLR8 cells (Homo sapiens)", "pIC50", "> 6.00"],
  ["N#Cc1ccc(N2C[C@]3(c4nnc(C56CCC(N)(CC5)CC6)o4)C[C@]3(C(F)(F)F)C2)c2cccnc12", "HEK-Blue-hTLR8 cells (Homo sapiens)", "pIC50", "> 7.00"],
  ["CN1CC(Cc2nnc([C@]34CN(c5ccc(C#N)n6ncc(F)c56)C[C@@]3(C(F)(F)F)C4)o2)C1", "HEK-Blue-hTLR8 cells (Homo sapiens)", "pIC50", "> 7.00"],
  ["CN1[C@@H]2CC[C@H]1C[C@H](c1nnc([C@]34CN(c5ccc(C(F)(F)F)c6ncccc56)C[C@@]3(C(F)(F)F)C4)o1)C2", "HEK-Blue-hTLR8 cells (Homo sapiens)", "pIC50", "> 7.00"],
  ["CN1CCC(c2nnc([C@]34CN(c5ccc(C#N)n6ncc(Br)c56)C[C@@]3(C(F)(F)F)C4)o2)CC1", "HEK-Blue-hTLR8 cells (Homo sapiens)", "pIC50", "< 6.00"],
  ["CC1(C)CC(Cc2nnc([C@]34CN(c5ccc(C#N)c6ncccc56)C[C@@]3(C(F)(F)F)C4)o2)CC(C)(C)N1", "HEK-Blue-hTLR8 cells (Homo sapiens)", "pIC50", "> 7.00"],
  ["FC(F)(F)c1ccc(N2C[C@]3(c4nnc(C5(F)CCNCC5)o4)C[C@]3(C(F)(F)F)C2)c2cccnc12", "HEK-Blue-hTLR8 cells (Homo sapiens)", "pIC50", "> 7.00"],
  ["CN1CCC(n2cnc([C@]34CN(c5ccc(C#N)n6ncc(F)c56)C[C@@]3(C(F)(F)F)C4)n2)CC1", "HEK-Blue-hTLR8 cells (Homo sapiens)", "pIC50", "> 7.00"],
  ["N#Cc1ccc(N2C[C@]3(c4nnc(CC5CNC5)o4)C[C@]3(C(F)(F)F)C2)c2cccnc12", "HEK-Blue-hTLR8 cells (Homo sapiens)", "pIC50", "> 6.00"],
  ["CN1CCC(Cc2nnc([C@]34CN(c5ccc(C#N)c6ncccc56)C[C@@]3(C(F)(F)F)C4)n2C)CC1", "HEK-Blue-hTLR8 cells (Homo sapiens)", "pIC50", "> 6.00"],
  ["COc1ccc(N2C[C@]3(c4nnc(C5CCN(C)CC5)o4)C[C@]3(C(F)(F)F)C2)c2cccnc12", "HEK-Blue-hTLR8 cells (Homo sapiens)", "pIC50", "> 7.00"]
]}
